Biological target: A*0206 (Homo sapiens, UniProt P04439, D140Y/D185E/D98H/E176V/E277Q/F33Y/G131W/G231S/I119V/I121R/I166T/I218V/L300P/L318F/N151K/N90K/P208A/P217A/Q86G/Q94H/R138H/R169H/T345S)
Assay: biochemical
Format: binding
No end group written: not given here.
READOUT TYPE: log10(IC50) (log10 of the value in nM)
Answers are given as log10 of IC50 in nM.

Some sequences with recorded log10(IC50):
# RECORD SEQUENCE, log10(IC50)
rows = [
    ("AIFGVNPTV [Peptide 1578.25]", 1.98),
    ("RILQQLLFT [Peptide 1525.13]", 2.69),
    ("RTLQQLLFV [Peptide 1525.15]", 1.48),
]

Entry FLSGCVISYV [Peptide 1578.32] — recorded log10(IC50) = 1.83

Entry TAKLTIESV [Peptide 9013.0009] — recorded log10(IC50) = 4.03

Entry ALAFTCEPET [Peptide 9013.0156] — recorded log10(IC50) = 3.90
